# Test system: RARa:RXR (NR concentration 270 nM, RXRa partner concentration 90 nM)
# assay.procedure: PBM binding z-score (relative to random genomic background probes); higher = stronger binding; sequences stand for … in GC…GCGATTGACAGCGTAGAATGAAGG
We begin with a simple list: items and their reported PBM binding z-score.
// no unit string in output, number only

TAGCCTAGGTCATGAGGGCCAGTATAGTGTCGGC = 2.56
AATACAGGGTCATCGTAGGCCAGAGTACGCACAG = 4.82
TCTAGCAGGCCAGCGGGTCACTCAAGAGGTACGG = 1.81
TCTTGTAGATCAAAGTTTAAGAAAGCCGAAGCCT = 0.864
TGTCAAAGTTCAAAGGTAACGTAAGTATCCACAC = 6.45

Would you mind telling me what PBM binding z-score value was observed for CCTACTCGGCCATTCAGAGGTCATTGATCATATG ? 4.55

Would you mind telling me what PBM binding z-score value was observed for CCTACTGGGCCAAAATGGTCATTGATGCCGATAA ? 0.45

Would you mind telling me what PBM binding z-score value was observed for CCGAGTAGGTTGTGGGGCATTCAGGCAACGGTGA ? -0.303

Would you mind telling me what PBM binding z-score value was observed for AGAACGAGGGCACGCTGAGTTGATATCAGAGTAG ? 0.865

###

# Tested on: THRa:RXRa (NR concentration 90 nM, RXRa partner concentration 90 nM)
# assay.procedure: PBM binding z-score (relative to random genomic background probes); higher = stronger binding; sequences stand for … in GC…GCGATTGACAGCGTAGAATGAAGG
measure: PBM binding z-score
// no unit string in output, number only

The following sequences have reported results that may help.
ATCTCTAGGTAAAAGTTCAGTAAATCCCGAGGAT = 1.38
TGAACGAGGTTAAAGATCAGGGAACGTGGCGTCG = 2.04
GCTAGTTGGTCAGTAAAAGGTCTCACACCGGTCG = 0.0932

Would you mind telling me what PBM binding z-score value was observed for AATACAGGGTCACTAGGCCTGAGTAGGTACGAAT ? 3.13

Would you mind telling me what PBM binding z-score value was observed for ATATGTAGGTTAAGTGTCATTCAGGTTGGTTCGC ? 1.58

Would you mind telling me what PBM binding z-score value was observed for TCTTGTTGGTCACGGAGGTCACACACGACGGGTA ? 3.66

Would you mind telling me what PBM binding z-score value was observed for CCTCGGAGGACAGAAGGTCAGAGCTGTCCGCTTT ? 2.22

Would you mind telling me what PBM binding z-score value was observed for TCGCGTAGGTTAGTCGGGGCATTCAGCCAACATA ? 1.26

Would you mind telling me what PBM binding z-score value was observed for CGAACTAGGTCATCCAGGACGGTGAATACATTGA ? 3.07

Would you mind telling me what PBM binding z-score value was observed for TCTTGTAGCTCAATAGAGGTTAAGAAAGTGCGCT ? 1.27

Would you mind telling me what PBM binding z-score value was observed for TTACCAAGGTGAAGGACGTTGATCCCTCTGTAGA ? 1.66

Would you mind telling me what PBM binding z-score value was observed for CGTCAAAGTTCAACTAAGATAACGTAAAGCACGC ? 2.98

Would you mind telling me what PBM binding z-score value was observed for CCTACTGGGCCATTCAGAGATCATTGATCATATG ? -0.209

Would you mind telling me what PBM binding z-score value was observed for TCTATTAGTTGATTAGGGCAACAGAAACAGCGGA ? 0.607

Would you mind telling me what PBM binding z-score value was observed for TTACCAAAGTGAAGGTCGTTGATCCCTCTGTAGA ? 0.74

Would you mind telling me what PBM binding z-score value was observed for CGTTCAAGGTCAATGCTAGGTCAGTGAAAGCATT ? 4.72

Would you mind telling me what PBM binding z-score value was observed for GCGACTGGTGCAAAGCAGGTTACCATAAGGTTGG ? 1.93

Cited source: the supplement of paper PMC6555819
